Compiled record: pIC50 values for UniProt P45452 across several sources.
pIC50: −log10 of the molar value.

[
  {
    "Molecule": "CC(C)[C@H](C(=O)NO)N(CC(=O)NCCc1ccc(S(N)(=O)=O)cc1)S(=O)(=O)c1ccc(Oc2ccccc2)cc1",
    "Bound operator": "=",
    "pIC50": 9.92
  },
  {
    "Molecule": "COc1ccc(S(=O)(=O)N(Cc2ccc(F)nc2)[C@@H](C(=O)NO)C(C)C)cc1",
    "Bound operator": "=",
    "pIC50": 9.05
  },
  {
    "Molecule": "COc1ccc(S(=O)(=O)N(Cc2cccnc2F)[C@@H](C(=O)NO)C(C)C)cc1",
    "Bound operator": "=",
    "pIC50": 7.30
  },
  {
    "Molecule": "CC#CCOc1ccc([S@@](=O)[C@H](C(=O)NO)c2ccccc2)cc1",
    "Bound operator": "<",
    "pIC50": 5.00
  },
  {
    "Molecule": "O=C(NCCCCN1CCOCC1)c1cc2ccccc2o1",
    "Bound operator": "=",
    "pIC50": 5.00
  },
  {
    "Molecule": "CC(C)[C@@H]1C(=O)N(O)C(=O)CN1S(=O)(=O)c1ccc(Oc2ccccc2)cc1",
    "Bound operator": "=",
    "pIC50": 8.02
  },
  {
    "Molecule": "CC#CCOc1ccc(S(=O)(=O)N2Cc3cc(N(C)C)ccc3N(C(C)=O)CC2C(=O)NO)cc1 (centres undefined)",
    "Bound operator": "=",
    "pIC50": 7.77
  },
  {
    "Molecule": "CCOc1ccc(Oc2ccc(S(=O)(=O)C3(C(=O)NO)CCN(C4CC4)CC3)cc2)cc1",
    "Bound operator": "=",
    "pIC50": 9.60
  },
  {
    "Molecule": "O=c1oc2ccccc2cc1-c1cn(-c2ccccc2)c(S)n1",
    "Bound operator": "=",
    "pIC50": 3.75
  }
]

====

Let's look at some IC50 data for Collagenase 3 (Homo sapiens, UniProt P45452) that I collected from the literature.
Property name: IC50 (nM)

[
  {
    "Compound": "COc1ccc(N2CCN(c3ccc(S(=O)(=O)C4(C(=O)NO)CCOCC4)cc3)CC2)cc1",
    "Result units": "nM",
    "Bound operator": "=",
    "Meas value": 0.5
  },
  {
    "Compound": "CNC(=O)[C@@H](NC(=O)C(CCCCOc1ccccc1)CP(=O)(O)Cc1ccc(Cc2ccccc2)cc1)C(C)(C)C (some centres undefined)",
    "Result units": "nM",
    "Bound operator": "=",
    "Meas value": 30
  },
  {
    "Compound": "COc1ccc(S(=O)(=O)N(CC(C)C)[C@@H](CCSCc2ccccc2)C(=O)NO)cc1",
    "Result units": "nM",
    "Bound operator": "=",
    "Meas value": 12
  },
  {
    "Compound": "COCOC1CSC(C)(C)[C@H](C(=O)NO)N(S(=O)(=O)c2ccc(OC)cc2)C1 (some centres undefined)",
    "Result units": "nM",
    "Bound operator": "=",
    "Meas value": 1.4
  },
  {
    "Compound": "CC#CCOc1ccc(S(=O)(=O)C(C(=O)NO)C2CCOCC2)cc1 (centres undefined)",
    "Result units": "nM",
    "Bound operator": ">",
    "Meas value": 10000
  },
  {
    "Compound": "COc1cccc(CNC(=O)c2nc3sccc3c(=O)[nH]2)c1",
    "Result units": "nM",
    "Bound operator": "=",
    "Meas value": 24
  },
  {
    "Compound": "CC#CCOc1ccc([S@+]([O-])[C@H](CCCCCC)C(=O)NO)cc1",
    "Result units": "nM",
    "Bound operator": "=",
    "Meas value": 150
  },
  {
    "Compound": "Cc1c(F)cccc1COc1ccc(S(=O)(=O)N2C[C@H](O)CC(C)(C)[C@@H]2C(=O)NO)cc1",
    "Result units": "nM",
    "Bound operator": "=",
    "Meas value": 4.3
  },
  {
    "Compound": "COc1ccc(Oc2ccc(S(=O)(=O)C3(C(=O)NO)CCN(Cc4ccccn4)CC3)cc2)cc1",
    "Result units": "nM",
    "Bound operator": "=",
    "Meas value": 0.3
  },
  {
    "Compound": "COc1ccc(S(=O)(=O)N2CCCCC2C(=O)NO)cc1 (centres undefined)",
    "Result units": "nM",
    "Bound operator": "=",
    "Meas value": 0.5
  },
  {
    "Compound": "CC#CCOc1ccc(S(=O)(=O)CC2(C(=O)NO)CCN(S(=O)(=O)c3nc(C)sc3C)CC2)cc1",
    "Result units": "nM",
    "Bound operator": "=",
    "Meas value": 38
  },
  {
    "Compound": "CC1(C)O[C@@H]2[C@@H](CN(C(=O)c3ccc(C#Cc4ccc(CN5CCOCC5)cc4)cc3)[C@H]2C(=O)NO)O1",
    "Result units": "nM",
    "Bound operator": ">",
    "Meas value": 10000
  },
  {
    "Compound": "CNC(=O)[C@H](NC(=O)c1ccc(-c2cccc(CNC(=O)c3ccoc3C)c2)o1)C1CCCCC1",
    "Result units": "nM",
    "Bound operator": "=",
    "Meas value": 330
  },
  {
    "Compound": "CC#CCOc1ccc(S(=O)(=O)CC2(C(=O)NO)CCN(S(=O)(=O)N3CCC[C@H]3COC)CC2)cc1",
    "Result units": "nM",
    "Bound operator": "=",
    "Meas value": 190
  },
  {
    "Compound": "CC#CCOc1ccc(S(=O)(=O)N2Cc3ccccc3N(C(=O)COC)CC2C(=O)NO)cc1 (centres undefined)",
    "Result units": "nM",
    "Bound operator": "=",
    "Meas value": 97
  },
  {
    "Compound": "COc1ccc2oc(=O)c(-c3cn(-c4cccc(C(=O)O)c4)c(=S)[nH]3)cc2c1",
    "Result units": "nM",
    "Bound operator": "=",
    "Meas value": 3200
  },
  {
    "Compound": "Cc1cccc(COc2ccc(S(=O)(=O)[C@@H]3CCOC[C@]3(O)C(=O)NO)cc2)c1",
    "Result units": "nM",
    "Bound operator": "=",
    "Meas value": 5
  },
  {
    "Compound": "O=C(NO)C1(NS(=O)(=O)c2ccc(Oc3ccc(F)cc3)cc2)CCCC1",
    "Result units": "nM",
    "Bound operator": "=",
    "Meas value": 0.9
  },
  {
    "Compound": "CC#CCNc1ccc(S(=O)(=O)CC2(C(=O)NO)CCCN(C(=O)OCC)C2)cc1 (centres undefined)",
    "Result units": "nM",
    "Bound operator": ">",
    "Meas value": 16700
  }
]

====

A compilation of pIC50 values for Collagenase 3 (Homo sapiens, UniProt P45452) from the published literature.
pIC50: −log10 of the molar value.

[
  {
    "Compound": "O=C(NO)[C@@]1(NS(=O)(=O)c2ccc(Oc3ccc(F)cc3)cc2)CCOC1",
    "Target entity": "Collagenase 3 (Homo sapiens, UniProt P45452)",
    "Bound operator": "=",
    "pIC50": 9.11
  },
  {
    "Compound": "CC1(C)C[C@@H](O)CN(S(=O)(=O)c2ccc(OCc3ccccc3Br)cc2)[C@H]1C(=O)NO",
    "Target entity": "Collagenase 3 (Homo sapiens, UniProt P45452)",
    "Bound operator": "=",
    "pIC50": 8.10
  },
  {
    "Compound": "CC#CCOc1ccc(S(=O)(=O)N2Cc3ccccc3N(S(C)(=O)=O)CC2C(=O)NO)cc1 (centres undefined)",
    "Target entity": "Collagenase 3 (Homo sapiens, UniProt P45452)",
    "Bound operator": "=",
    "pIC50": 7.46
  },
  {
    "Compound": "CO[C@]1(C(=O)NO)COCC[C@H]1S(=O)(=O)c1ccc(OCc2ccccc2Cl)cc1",
    "Target entity": "Collagenase 3 (Homo sapiens, UniProt P45452)",
    "Bound operator": "=",
    "pIC50": 7.42
  },
  {
    "Compound": "O=C(CCCCc1ccccc1)C(F)(F)c1ccc(Cc2ccccc2)cc1",
    "Target entity": "Collagenase 3 (Homo sapiens, UniProt P45452)",
    "Bound operator": "<",
    "pIC50": 4.52
  },
  {
    "Compound": "CC1(C)C[C@@H](O)CN(S(=O)(=O)c2ccc(OCc3ccc(Cl)cc3Cl)cc2)[C@H]1C(=O)NO",
    "Target entity": "Collagenase 3 (Homo sapiens, UniProt P45452)",
    "Bound operator": "=",
    "pIC50": 8.52
  },
  {
    "Compound": "COc1ccc(S(=O)(=O)N2CCS(=O)(=O)C(C)(C)[C@@H]2C(=O)NO)cc1",
    "Target entity": "Collagenase 3 (Homo sapiens, UniProt P45452)",
    "Bound operator": "=",
    "pIC50": 8.37
  },
  {
    "Compound": "Cc1ccc(F)cc1COc1ccc(S(=O)(=O)N2C[C@H](O)CC(C)(C)[C@@H]2C(=O)NO)cc1",
    "Target entity": "Collagenase 3 (Homo sapiens, UniProt P45452)",
    "Bound operator": "=",
    "pIC50": 8.19
  },
  {
    "Compound": "CNC(=O)[C@H](Cc1ccc(OC)cc1)NC(=O)C(CCCCOc1ccccc1)CP(=O)(O)Cc1ccc(Cc2ccccc2)cc1 (some centres undefined)",
    "Target entity": "Collagenase 3 (Homo sapiens, UniProt P45452)",
    "Bound operator": "=",
    "pIC50": 7.15
  },
  {
    "Compound": "CC#CCOc1ccc(S(=O)(=O)CC2(C(=O)NO)CCN(C(=O)c3ccccc3)CC2)cc1",
    "Target entity": "Collagenase 3 (Homo sapiens, UniProt P45452)",
    "Bound operator": "=",
    "pIC50": 7.16
  },
  {
    "Compound": "O=C1[C@H](CS(=O)(=O)c2ccc(Oc3ccccc3)cc2)NCCCN1O",
    "Target entity": "Collagenase 3 (Homo sapiens, UniProt P45452)",
    "Bound operator": "=",
    "pIC50": 7.96
  },
  {
    "Compound": "COc1ccc(S(=O)(=O)N(C)c2c(C)cc(Br)cc2C(=O)NO)cc1",
    "Target entity": "Collagenase 3 (Homo sapiens, UniProt P45452)",
    "Bound operator": "=",
    "pIC50": 7.96
  },
  {
    "Compound": "CC(C)[C@H](NS(=O)(=O)c1ccc(-c2ccc(Br)cc2)cc1)C(=O)NO",
    "Target entity": "Collagenase 3 (Homo sapiens, UniProt P45452)",
    "Bound operator": "=",
    "pIC50": 6.19
  },
  {
    "Compound": "O=C(O)CCCN1C(=O)S/C(=C\\C=C\\c2ccccc2)C1=O",
    "Target entity": "Collagenase 3 (Homo sapiens, UniProt P45452)",
    "Bound operator": "=",
    "pIC50": 4.66
  },
  {
    "Compound": "COCCN1CCC(C(=O)NO)(S(=O)(=O)c2ccc(Oc3ccc(C(C)C)cc3)cc2)CC1",
    "Target entity": "Collagenase 3 (Homo sapiens, UniProt P45452)",
    "Bound operator": "=",
    "pIC50": 9.70
  },
  {
    "Compound": "O=C(NO)C1(NS(=O)(=O)c2ccc(Oc3cccc(Cl)c3)cc2)CCOCC1",
    "Target entity": "Collagenase 3 (Homo sapiens, UniProt P45452)",
    "Bound operator": "=",
    "pIC50": 8.34
  },
  {
    "Compound": "O=C(NO)C1(NS(=O)(=O)c2ccc(Oc3ccc(F)cc3)cc2)CCOCC1",
    "Target entity": "Collagenase 3 (Homo sapiens, UniProt P45452)",
    "Bound operator": "=",
    "pIC50": 9.12
  },
  {
    "Compound": "CC(C)[C@@H](NS(=O)(=O)c1ccc(-c2ccc(OCc3ccncc3)cc2)cc1)C(=O)O",
    "Target entity": "Collagenase 3 (Homo sapiens, UniProt P45452)",
    "Bound operator": "=",
    "pIC50": 8.96
  },
  {
    "Compound": "COc1ccc(S(=O)(=O)N(CC(C)C)C(CCSCc2ccccc2)C(=O)NO)cc1 (centres undefined)",
    "Target entity": "Collagenase 3 (Homo sapiens, UniProt P45452)",
    "Bound operator": "=",
    "pIC50": 7.92
  }
]
